B1: library; a variant is named by its letters at N, in order (parent)
chain: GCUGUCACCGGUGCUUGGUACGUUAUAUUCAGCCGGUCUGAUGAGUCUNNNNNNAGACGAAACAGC

- Variants of: B1
- PROTOCOL_DETAILS: normalized RNA/DNA level with ligand (relative to sTRSVctl = 100) (log10 (% of sTRSVctl)); HEK293T overexpressing SLC46A1; ligand concentration (+) RNA-Seq: 6 mM; higher = less ribozyme self-cleavage, higher mRNA level
- EXPERIMENTAL_CONTEXT: with (6R,S)-folinic acid; ligand present: yes
Can you tell me normalized RNA/DNA level with ligand (log10) for the items I'm about to list?

Item GCUGUCACCGGUGCUUGGUACGUUAUAUUCAGCCGGUCUGAUGAGUCUUCACUAAGACGAAACAGC : provide normalized RNA/DNA level with ligand (log10)
2.02

Dear colleague, please send me the reported normalized RNA/DNA level with ligand (log10) for GCUGUCACCGGUGCUUGGUACGUUAUAUUCAGCCGGUCUGAUGAGUCUAGAUUCAGACGAAACAGC when you can.
2.04

Using known records, supply normalized RNA/DNA level with ligand (log10) for GCUGUCACCGGUGCUUGGUACGUUAUAUUCAGCCGGUCUGAUGAGUCUCUUUUGAGACGAAACAGC
2.04

Complete the entry with normalized RNA/DNA level with ligand (log10) for GCUGUCACCGGUGCUUGGUACGUUAUAUUCAGCCGGUCUGAUGAGUCUCGAUGGAGACGAAACAGC
1.97

Give reported normalized RNA/DNA level with ligand (log10) value for GCUGUCACCGGUGCUUGGUACGUUAUAUUCAGCCGGUCUGAUGAGUCUAAUUAAAGACGAAACAGC
1.98

State its normalized RNA/DNA level with ligand (log10) for this variant: GCUGUCACCGGUGCUUGGUACGUUAUAUUCAGCCGGUCUGAUGAGUCUAUUGUGAGACGAAACAGC
1.99

Give reported normalized RNA/DNA level with ligand (log10) value for GCUGUCACCGGUGCUUGGUACGUUAUAUUCAGCCGGUCUGAUGAGUCUAUGCAAAGACGAAACAGC
1.98

Dear colleague, please send me the reported normalized RNA/DNA level with ligand (log10) for GCUGUCACCGGUGCUUGGUACGUUAUAUUCAGCCGGUCUGAUGAGUCUUAAGAAAGACGAAACAGC when you can.
1.96

Retrieve normalized RNA/DNA level with ligand (log10) measured for GCUGUCACCGGUGCUUGGUACGUUAUAUUCAGCCGGUCUGAUGAGUCUAAAGGUAGACGAAACAGC and print it.
2.01

Give the value of normalized RNA/DNA level with ligand (log10) reported for the following: GCUGUCACCGGUGCUUGGUACGUUAUAUUCAGCCGGUCUGAUGAGUCUCUGGCUAGACGAAACAGC
2.02

// Input: GCUGUCACCGGUGCUUGGUACGUUAUAUUCAGCCGGUCUGAUGAGUCUGGGGAAAGACGAAACAGC . Output its normalized RNA/DNA level with ligand (log10) only.
2.06

Answer with reported normalized RNA/DNA level with ligand (log10) of GCUGUCACCGGUGCUUGGUACGUUAUAUUCAGCCGGUCUGAUGAGUCUACAGUAAGACGAAACAGC
1.99

Answer with the recorded normalized RNA/DNA level with ligand (log10) for the variant listed here: GCUGUCACCGGUGCUUGGUACGUUAUAUUCAGCCGGUCUGAUGAGUCUACGCUCAGACGAAACAGC
2.05

Supply measured normalized RNA/DNA level with ligand (log10) of GCUGUCACCGGUGCUUGGUACGUUAUAUUCAGCCGGUCUGAUGAGUCUUGCACUAGACGAAACAGC in your reply.
2.04

Using the record for GCUGUCACCGGUGCUUGGUACGUUAUAUUCAGCCGGUCUGAUGAGUCUUUCUCGAGACGAAACAGC , state its measured normalized RNA/DNA level with ligand (log10).
2.02

Give normalized RNA/DNA level with ligand (log10) for GCUGUCACCGGUGCUUGGUACGUUAUAUUCAGCCGGUCUGAUGAGUCUCUCGUUAGACGAAACAGC
2.05

Consider the variant GCUGUCACCGGUGCUUGGUACGUUAUAUUCAGCCGGUCUGAUGAGUCUGGGGCGAGACGAAACAGC . State its measured normalized RNA/DNA level with ligand (log10).
2.06

Report measured normalized RNA/DNA level with ligand (log10); entry is GCUGUCACCGGUGCUUGGUACGUUAUAUUCAGCCGGUCUGAUGAGUCUACGCGUAGACGAAACAGC
2.02

Using the record for GCUGUCACCGGUGCUUGGUACGUUAUAUUCAGCCGGUCUGAUGAGUCUGCGAUUAGACGAAACAGC , state its measured normalized RNA/DNA level with ligand (log10).
2.04

Answer with the recorded normalized RNA/DNA level with ligand (log10) for the variant listed here: GCUGUCACCGGUGCUUGGUACGUUAUAUUCAGCCGGUCUGAUGAGUCUCUUGGGAGACGAAACAGC
2.04

Please supply the value of reported normalized RNA/DNA level with ligand (log10) for the item GCUGUCACCGGUGCUUGGUACGUUAUAUUCAGCCGGUCUGAUGAGUCUAUUUUGAGACGAAACAGC
1.99

Please report normalized RNA/DNA level with ligand (log10) for the following variant: GCUGUCACCGGUGCUUGGUACGUUAUAUUCAGCCGGUCUGAUGAGUCUUUGGUGAGACGAAACAGC
2.01

Please give measured normalized RNA/DNA level with ligand (log10) of the following entry: GCUGUCACCGGUGCUUGGUACGUUAUAUUCAGCCGGUCUGAUGAGUCUCGUGGGAGACGAAACAGC
1.98

Kindly indicate its recorded normalized RNA/DNA level with ligand (log10). Item: GCUGUCACCGGUGCUUGGUACGUUAUAUUCAGCCGGUCUGAUGAGUCUUAGUGUAGACGAAACAGC
1.99

Give normalized RNA/DNA level with ligand (log10) for the following variant: GCUGUCACCGGUGCUUGGUACGUUAUAUUCAGCCGGUCUGAUGAGUCUUUUUACAGACGAAACAGC
1.97

Input GCUGUCACCGGUGCUUGGUACGUUAUAUUCAGCCGGUCUGAUGAGUCUAAGUAAAGACGAAACAGC , output reported normalized RNA/DNA level with ligand (log10).
2

For the variant GCUGUCACCGGUGCUUGGUACGUUAUAUUCAGCCGGUCUGAUGAGUCUUAUCAUAGACGAAACAGC , report normalized RNA/DNA level with ligand (log10).
1.99

Supply normalized RNA/DNA level with ligand (log10) value. Item: GCUGUCACCGGUGCUUGGUACGUUAUAUUCAGCCGGUCUGAUGAGUCUGAACCUAGACGAAACAGC
2.02

Dear colleague, please send me the reported normalized RNA/DNA level with ligand (log10) for GCUGUCACCGGUGCUUGGUACGUUAUAUUCAGCCGGUCUGAUGAGUCUUGCGGGAGACGAAACAGC when you can.
1.99

Kindly indicate its recorded normalized RNA/DNA level with ligand (log10). Item: GCUGUCACCGGUGCUUGGUACGUUAUAUUCAGCCGGUCUGAUGAGUCUUCGGUCAGACGAAACAGC
2.06

Give normalized RNA/DNA level with ligand (log10) for the following variant: GCUGUCACCGGUGCUUGGUACGUUAUAUUCAGCCGGUCUGAUGAGUCUGUCGAUAGACGAAACAGC
2.02

Fill in reported normalized RNA/DNA level with ligand (log10) for this entry: GCUGUCACCGGUGCUUGGUACGUUAUAUUCAGCCGGUCUGAUGAGUCUUGAAAAAGACGAAACAGC
1.99

Give the measured normalized RNA/DNA level with ligand (log10) for GCUGUCACCGGUGCUUGGUACGUUAUAUUCAGCCGGUCUGAUGAGUCUAAGAAAAGACGAAACAGC
1.99

Report measured normalized RNA/DNA level with ligand (log10); entry is GCUGUCACCGGUGCUUGGUACGUUAUAUUCAGCCGGUCUGAUGAGUCUUCCUAUAGACGAAACAGC
2.03

Indicate the recorded normalized RNA/DNA level with ligand (log10) value for this variant: GCUGUCACCGGUGCUUGGUACGUUAUAUUCAGCCGGUCUGAUGAGUCUCUGUCUAGACGAAACAGC
2.04

Return normalized RNA/DNA level with ligand (log10) for the following variant: GCUGUCACCGGUGCUUGGUACGUUAUAUUCAGCCGGUCUGAUGAGUCUACCGACAGACGAAACAGC
2.03

Return value of normalized RNA/DNA level with ligand (log10) for input GCUGUCACCGGUGCUUGGUACGUUAUAUUCAGCCGGUCUGAUGAGUCUCAACCUAGACGAAACAGC , no commentary.
2.05

Please give measured normalized RNA/DNA level with ligand (log10) of the following entry: GCUGUCACCGGUGCUUGGUACGUUAUAUUCAGCCGGUCUGAUGAGUCUAGUCCCAGACGAAACAGC
2.05

Using known records, supply normalized RNA/DNA level with ligand (log10) for GCUGUCACCGGUGCUUGGUACGUUAUAUUCAGCCGGUCUGAUGAGUCUCCACCAAGACGAAACAGC
2.01

Provide normalized RNA/DNA level with ligand (log10) value for the following variant: GCUGUCACCGGUGCUUGGUACGUUAUAUUCAGCCGGUCUGAUGAGUCUCUCCCAAGACGAAACAGC
2.01

Identify measured normalized RNA/DNA level with ligand (log10) corresponding to GCUGUCACCGGUGCUUGGUACGUUAUAUUCAGCCGGUCUGAUGAGUCUACAGCCAGACGAAACAGC
2.04

Return the recorded normalized RNA/DNA level with ligand (log10) value; entry: GCUGUCACCGGUGCUUGGUACGUUAUAUUCAGCCGGUCUGAUGAGUCUCGUUGGAGACGAAACAGC
2.02

Using the record for GCUGUCACCGGUGCUUGGUACGUUAUAUUCAGCCGGUCUGAUGAGUCUCUGCUAAGACGAAACAGC , state its measured normalized RNA/DNA level with ligand (log10).
2.05

Fill in reported normalized RNA/DNA level with ligand (log10) for this entry: GCUGUCACCGGUGCUUGGUACGUUAUAUUCAGCCGGUCUGAUGAGUCUCAGCUAAGACGAAACAGC
2.04

Given the variant GCUGUCACCGGUGCUUGGUACGUUAUAUUCAGCCGGUCUGAUGAGUCUACUCUCAGACGAAACAGC , write its reported normalized RNA/DNA level with ligand (log10).
2.06

Respond only with normalized RNA/DNA level with ligand (log10) recorded for GCUGUCACCGGUGCUUGGUACGUUAUAUUCAGCCGGUCUGAUGAGUCUCAUUGGAGACGAAACAGC
2.01
